- subjectOfTest: plasma purified human complement protein C3 (human) (UniProt P01024)
- Sequence (P01024 23-667, chain 1 of 2): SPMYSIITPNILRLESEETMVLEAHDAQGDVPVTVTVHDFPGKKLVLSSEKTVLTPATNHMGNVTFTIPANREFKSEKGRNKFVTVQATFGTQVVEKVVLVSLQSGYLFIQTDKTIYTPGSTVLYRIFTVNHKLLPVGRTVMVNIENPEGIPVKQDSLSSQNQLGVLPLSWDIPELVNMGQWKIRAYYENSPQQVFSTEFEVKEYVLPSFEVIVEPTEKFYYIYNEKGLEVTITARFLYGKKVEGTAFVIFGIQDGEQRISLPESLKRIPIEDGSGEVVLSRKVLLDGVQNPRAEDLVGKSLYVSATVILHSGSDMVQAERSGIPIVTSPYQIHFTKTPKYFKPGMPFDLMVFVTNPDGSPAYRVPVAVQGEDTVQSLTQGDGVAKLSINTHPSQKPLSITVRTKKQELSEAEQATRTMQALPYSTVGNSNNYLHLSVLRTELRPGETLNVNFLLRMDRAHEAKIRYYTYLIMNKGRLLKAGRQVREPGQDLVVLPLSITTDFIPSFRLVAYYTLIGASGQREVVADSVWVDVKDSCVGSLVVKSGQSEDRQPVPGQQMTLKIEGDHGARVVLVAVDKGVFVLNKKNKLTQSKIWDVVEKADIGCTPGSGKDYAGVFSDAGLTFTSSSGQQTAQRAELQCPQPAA
- Sequence (P01024 672-1663, chain 2 of 2): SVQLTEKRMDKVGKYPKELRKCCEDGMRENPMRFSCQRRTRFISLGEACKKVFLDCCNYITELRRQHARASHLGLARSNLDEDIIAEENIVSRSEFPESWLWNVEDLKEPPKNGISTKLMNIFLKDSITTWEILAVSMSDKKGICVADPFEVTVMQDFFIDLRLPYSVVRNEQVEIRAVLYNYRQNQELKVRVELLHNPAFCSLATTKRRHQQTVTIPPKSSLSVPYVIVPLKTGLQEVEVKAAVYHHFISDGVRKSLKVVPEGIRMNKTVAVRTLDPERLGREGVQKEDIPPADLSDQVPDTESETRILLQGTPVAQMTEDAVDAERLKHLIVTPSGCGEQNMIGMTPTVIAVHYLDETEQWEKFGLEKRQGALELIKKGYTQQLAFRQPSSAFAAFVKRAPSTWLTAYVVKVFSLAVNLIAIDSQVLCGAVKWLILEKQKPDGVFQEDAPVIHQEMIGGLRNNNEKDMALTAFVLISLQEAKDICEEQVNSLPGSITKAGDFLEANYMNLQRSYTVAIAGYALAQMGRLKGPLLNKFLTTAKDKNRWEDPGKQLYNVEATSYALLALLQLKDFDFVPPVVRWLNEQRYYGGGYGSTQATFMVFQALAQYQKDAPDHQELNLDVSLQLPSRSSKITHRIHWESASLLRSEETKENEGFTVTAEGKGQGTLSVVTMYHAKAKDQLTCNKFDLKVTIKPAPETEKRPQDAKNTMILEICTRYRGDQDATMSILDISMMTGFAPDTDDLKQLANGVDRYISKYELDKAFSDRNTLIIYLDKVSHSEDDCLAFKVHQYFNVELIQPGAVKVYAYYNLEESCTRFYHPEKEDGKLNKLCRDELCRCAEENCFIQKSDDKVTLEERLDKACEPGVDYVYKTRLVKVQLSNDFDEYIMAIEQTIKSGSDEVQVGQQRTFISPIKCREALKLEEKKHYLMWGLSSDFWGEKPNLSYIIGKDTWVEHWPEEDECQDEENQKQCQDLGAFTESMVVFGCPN
- experimentalDetails: cell-based or functional assay
attributeMeasured: EC50 of hC3 cleavage (nM)
Numeric only. Scale: nM

Field: example entries. Status: answers known.
{"columns": ["binder", "EC50 of hC3 cleavage / nM"],
 "data": [
  ["MTSP-1 Q38R/I41S/D60bH/F60eI/ins97aE/F97T/T98G/F99L/C122S/G151N/Q175L/Q192E (enzyme) VVGGTDADEGEWPWQVSLHALGRGHSCGASLISPNWLVSAAHCYIDHRGIRYSDPTQWTAFLGLHDQSQRSAPGVQERRLKRIISHPFFNDTEGLDYDIALLELEKPAEYSSMVRPISLPDASHVFPAGKAIWVTGWGHTQYGGTNALILQKGEIRVINQTTCENLLPQLITPRMMCVGFLSGGVDSCEGDSGGPLSSVEADGRIFQAGVVSWGDGCAQRNKPGVYTRLPLFRDWIKENTGV", 32.9],
  ["MTSP-1 Q38H/I41S/D60bT/F60eT/F97D/ins97aV/T98P/F99L/C122S/G151N/Q175L/Q192V (enzyme) VVGGTDADEGEWPWQVSLHALGHGHSCGASLISPNWLVSAAHCYIDTRGTRYSDPTQWTAFLGLHDQSQRSAPGVQERRLKRIISHPFFNDDVPLDYDIALLELEKPAEYSSMVRPISLPDASHVFPAGKAIWVTGWGHTQYGGTNALILQKGEIRVINQTTCENLLPQLITPRMMCVGFLSGGVDSCVGDSGGPLSSVEADGRIFQAGVVSWGDGCAQRNKPGVYTRLPLFRDWIKENTGV", 5.08]
]}

Now take the following binder into account.
In: For the binder MTSP-1 K86R/K110R/C122S/K134R/K157R/K224R/K239R (enzyme) VVGGTDADEGEWPWQVSLHALGQGHICGASLISPNWLVSAAHCYIDDRGFRYSDPTQWTAFLGLHDQSQRSAPGVQERRLRRIISHPFFNDFTFDYDIALLELERPAEYSSMVRPISLPDASHVFPAGRAIWVTGWGHTQYGGTGALILQRGEIRVINQTTCENLLPQQITPRMMCVGFLSGGVDSCQGDSGGPLSSVEADGRIFQAGVVSWGDGCAQRNRPGVYTRLPLFRDWIRENTGV , give its reported EC50 of hC3 cleavage.
Out: 17.3
